Reported EC50 values for the following compounds.
- Tested on: Pyricularia oryzae
- Assay method text: Antifungal activity against Magnaporthe oryzae by mycelium growth rate test
- Type: functional, organism-based

Form: Entry = O=C1CCCCCCCCCCC2(CCCO1)N=N/C(=N/c1ccc(Br)cc1)S2 (stereo not given) | System = Pyricularia oryzae | EC50 = ____
338 µg/mL

For the record Cc1ccc(/N=C2/N=NC3(CCCCCCCCCCC(=O)NCCC3)S2)c(C)c1 (stereo not given) , what value of EC50 is listed for Pyricularia oryzae?
30.9 µg/mL

====

- Tested on: Pyricularia oryzae
- Assay method text: Antifungal activity against Magnaporthe oryzae by mycelium growth rate test
- Assay type: functional, organism-based
// reported EC50 for each item listed
Give just the number in µg/mL; leave the unit off.

Examples with answers:
compound="O=C1CCCCCCCCCCC2(CCCN1)N=N/C(=N/c1ccccc1)S2 (configuration not stated)" quantity_name=EC50 unit_text=µg/mL quantitative_result=41.5
compound="O=C1CCCCCCCCCCC2(CCCO1)N=N/C(=N/c1ccccc1Cl)S2 (configuration not stated)" quantity_name=EC50 unit_text=µg/mL quantitative_result=211
compound="O=C1CCCCCCCCCCC2(CCCN1)N=N/C(=N/c1ccccc1Br)S2 (configuration not stated)" quantity_name=EC50 unit_text=µg/mL quantitative_result=57.6
compound=CC(C)OC(=O)C(C(=O)OC(C)C)=C1SCCS1 quantity_name=EC50 unit_text=µg/mL quantitative_result=7.19
compound="Cc1ccc(C)c(/N=C2/N=NC3(CCCCCCCCCCC(=O)NCCC3)S2)c1 (configuration not stated)" quantity_name=EC50 unit_text=µg/mL quantitative_result=86.6

Reported EC50 for Cc1ccccc1/N=C1/N=NC2(CCCCCCCCCCC(=O)NCCC2)S1 (configuration not stated) : what is it?
78.4

Endpoint output: EC50 of O=C1CCCCCCCCCCC2(CCCN1)N=N/C(=N/c1ccccc1Cl)S2 (configuration not stated) . Value?
41.5

# EC50 lookup, item O=C1CCCCCCCCCCC2(CCCN1)N=N/C(=N/c1cccc3ccccc13)S2 (configuration not stated)
196

====

- Tested on: Pyricularia oryzae
- Assay method text: Antifungal activity against Magnaporthe oryzae by mycelium growth rate test
- Format: functional, organism-based
Quantity name: EC50
Just the number plus its unit, please.

Below, each entry is followed by its recorded EC50 result.
compound="Cc1ccc(C)c(/N=C2/N=NC3(CCCCCCCCCCC(=O)OCCC3)S2)c1 (stereo not drawn)" target_entity="Pyricularia oryzae" quantity_name=EC50 result="3120 µg/mL"
compound="O=C1CCCCCCCCCCC2(CCCN1)N=N/C(=N/c1cc(Cl)ccc1Cl)S2 (stereo not drawn)" target_entity="Pyricularia oryzae" quantity_name=EC50 result="1.11 µg/mL"

# evaluate next
API: value(readout= EC50, system= Pyricularia oryzae, query= COc1ccccc1/N=C1/N=NC2(CCCCCCCCCCC(=O)NCCC2)S1 (stereo not drawn) )
398 µg/mL

====

- Tested on: Pyricularia oryzae
- Assay method text: Antifungal activity against Magnaporthe oryzae by mycelium growth rate test
- Format: functional, organism-based
Kindly apply the following: 1 (yes) if EC50 is less than 100 µg/mL, 0 (no) in every other case.

Illustrative cases are given below, each with its answer.
compound="O=C1CCCCCCCCCCC2(CCCO1)N=N/C(=N/c1ccc(Cl)cc1)S2 (centres undefined)" target_entity="Pyricularia oryzae" cat="0 (no)"
compound="Cc1cccc(/N=C2/N=NC3(CCCCCCCCCCC(=O)NCCC3)S2)c1 (centres undefined)" target_entity="Pyricularia oryzae" cat="1 (yes)"
compound="COc1ccc(/N=C2/N=NC3(CCCCCCCCCCC(=O)NCCC3)S2)cc1 (centres undefined)" target_entity="Pyricularia oryzae" cat="1 (yes)"
compound="Cc1cccc(/N=C2/N=NC3(CCCCCCCCCCC(=O)NCCC3)S2)c1C (centres undefined)" target_entity="Pyricularia oryzae" cat="0 (no)"

Item O=C1CCCCCCCCCCC2(CCCN1)N=N/C(=N/c1ccc(Cl)c(Cl)c1)S2 (centres undefined) : EC50 beneath 100 µg/mL, strictly?
1 (yes)

Here's an entry: O=C1CCCCCCCCCCC2(CCCN1)N=N/C(=N/c1ccc(Cl)cc1)S2 (centres undefined) . Is its EC50 below 100 µg/mL?
1 (yes)

====

EC50 by entry:
- System: Pyricularia oryzae
- Assay method text: Antifungal activity against Magnaporthe oryzae by mycelium growth rate test
- Assay type: functional, organism-based
Express it in µg/mL; write the number only.

compound="Cc1ccc(/N=C2/N=NC3(CCCCCCCCCCC(=O)NCCC3)S2)cc1 (stereo not drawn)" quantitative_result=139

Return reported EC50; argument: O=C1CCCCCCCCCCC2(CCCO1)N=N/C(=N/c1ccccc1Br)S2 (stereo not drawn)
246

Which EC50 reading was recorded for the compound O=C1CCCCCCCCCCC2(CCCN1)N=N/C(=N/Cc1ccccc1)S2 (stereo not drawn) ?
117
